Maximal Blocking (%) overview
Target: T1, ErbB3-mFc (human)
T1 construct: Dimeric soluble ErbB3; also called hErbB3.mFc
T1 chain: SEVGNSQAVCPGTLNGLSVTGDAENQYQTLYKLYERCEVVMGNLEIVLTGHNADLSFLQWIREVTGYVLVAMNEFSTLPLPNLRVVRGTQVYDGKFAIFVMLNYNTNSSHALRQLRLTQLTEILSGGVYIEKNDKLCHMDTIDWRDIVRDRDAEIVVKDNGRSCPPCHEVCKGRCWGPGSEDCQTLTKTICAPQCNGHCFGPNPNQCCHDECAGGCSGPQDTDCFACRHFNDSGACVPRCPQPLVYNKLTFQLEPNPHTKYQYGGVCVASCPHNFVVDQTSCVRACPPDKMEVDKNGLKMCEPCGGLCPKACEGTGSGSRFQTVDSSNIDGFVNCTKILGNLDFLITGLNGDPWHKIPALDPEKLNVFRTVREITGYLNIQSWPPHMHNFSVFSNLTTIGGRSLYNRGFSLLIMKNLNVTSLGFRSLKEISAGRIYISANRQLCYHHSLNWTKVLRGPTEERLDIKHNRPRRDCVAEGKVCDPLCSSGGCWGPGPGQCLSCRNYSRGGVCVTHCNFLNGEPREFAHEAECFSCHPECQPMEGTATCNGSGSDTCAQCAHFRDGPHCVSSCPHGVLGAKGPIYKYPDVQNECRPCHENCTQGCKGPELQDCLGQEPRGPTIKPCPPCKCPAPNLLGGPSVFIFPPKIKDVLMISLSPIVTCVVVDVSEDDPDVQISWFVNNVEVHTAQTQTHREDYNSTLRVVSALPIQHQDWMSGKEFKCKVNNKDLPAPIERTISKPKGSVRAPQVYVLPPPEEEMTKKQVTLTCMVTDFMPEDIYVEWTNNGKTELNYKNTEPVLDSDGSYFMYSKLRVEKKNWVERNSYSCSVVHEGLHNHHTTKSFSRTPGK
Assay: blocking ELISA: antibody (0-50 nM) + 50 pM ErbB3-mFc, binding to coated neuregulin1b
Form entry: value (%) — number only.

• H4H2290P (antibody, human IgG4, V domains shown, Human IgG4 Fc (prefix H4H)) VH: EVQLLESGGGLVQPGGSLRLSCVASGFTFSSFAMSWVRQAPGKGLEWVSVISGSGGSTNHADSVRGRFTISRDNSLNTVYLQMHSLRAEDTALYYCVKAETSSSYFYYGMDVWGQGTTVTVSS VL: DIQLTQSPSFLSASVGDRVTITCWASQDISSYLAWYQQKPGKVPNLLIYGASSLQPGVPSRFSGSGSGTEFTLTISSLQPEDFATYYCQQLNNYPTFGGGTKLEIKR = 99

Need Maximal Blocking (%), item H4H1819N (antibody, human IgG4, V domains shown, Human IgG4 Fc (prefix H4H)) VH: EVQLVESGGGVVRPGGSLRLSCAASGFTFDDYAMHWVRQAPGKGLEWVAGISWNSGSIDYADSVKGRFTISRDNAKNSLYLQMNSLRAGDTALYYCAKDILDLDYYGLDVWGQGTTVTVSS VL: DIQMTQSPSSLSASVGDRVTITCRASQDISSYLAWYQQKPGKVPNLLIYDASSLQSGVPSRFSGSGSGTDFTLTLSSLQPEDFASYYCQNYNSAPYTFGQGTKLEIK
99

Now consider H4H2114P (antibody, human IgG4, V domains shown, Human IgG4 Fc (prefix H4H)) VH: QVQLVESGGGVVQPGRSLRLSCAASGFTFSSYGMHWVRQAPGKGLEWVAGMSYDGSSKYYEDSVKGRFTISRDNSKNTLNLQMNSLRVEDTAVYYCAKERDYVEYVDSYYGMDVWGQGTTVTVSA VL: AIQMTQSPSSLSASVGDRVTITCRASQGIRNDLGWYQQKPGKAPKVLIYAASSLQSGVPSRFSGSGSGTVFTLTISSLQPEDFATYYCLQDYNYPLTFGGGTKVEIKR .
91
